The measured values listed here are drawn from PubChem BioAssay (NCI).

Tested on: M14 melanoma
ASSAY_OVERVIEW: NCI tumour cell line growth inhibition, 48 h; in the data active means GI50 below about 0.43 µM; inactive means the rest
Classes used: active, inactive

COMPOUND	CATEGORY_LABEL
COc1ccc2c3c(Nc4ccc(/C(C)=N/O)cc4)[nH]c4ccccc4c-3c(N=O)c2c1	inactive
COC(C(=O)[C@@H](O)[C@@H](C)O)[C@@H]1Cc2cc3cc(O[C@H]4C[C@@H](O[C@H]5C[C@@H](O)[C@H](O)C(C)O5)[C@H](O)C(C)O4)c(C)c(O)c3c(O)c2C(=O)[C@H]1O[C@H]1C[C@@H](O[C@H]2C[C@@H](O[C@H]3C[C@@H](O)[C@H](OC)C(C)O3)[C@@H](O)C(C)O2)[C@H](O)C(C)O1 (some centres undefined)	active
Clc1ccc(N=CNc2ccc(-c3nc4ccccc4o3)cc2)cc1	inactive
Nc1nc(N)c2cc(CNc3ccc(C(=O)NC(CC(=O)O)C(=O)O)c(Cl)c3)ccc2n1 (centres undefined)	active
